Reported pIC50 values for the following compounds.
- TARGET ENTITY: melatonin ML1b receptor (Homo sapiens, UniProt P49286)
- Construct: expressed in transfected cells; membrane homogenates
- Sequence (P49286 1-362): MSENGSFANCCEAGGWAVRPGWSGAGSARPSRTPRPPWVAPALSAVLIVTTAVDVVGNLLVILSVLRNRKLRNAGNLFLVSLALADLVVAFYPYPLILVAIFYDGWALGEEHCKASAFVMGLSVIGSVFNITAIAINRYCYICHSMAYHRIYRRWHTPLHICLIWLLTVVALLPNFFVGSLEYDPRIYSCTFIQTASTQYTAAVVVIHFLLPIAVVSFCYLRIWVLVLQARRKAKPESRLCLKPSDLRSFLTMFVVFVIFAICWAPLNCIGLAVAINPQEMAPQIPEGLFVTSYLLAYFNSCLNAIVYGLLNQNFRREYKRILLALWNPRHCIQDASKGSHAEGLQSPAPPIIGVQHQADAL
- ASSAY DETAILS: Melatonergic receptor binding, 2-[125I]-iodomelatonin, ML1b
- PARTICULARS: Table II; NIH-3T3 membranes, 0.2 nM 2-[125I]-iodomelatonin, 37° C. 1 hour
- Description: Melatonergic Receptor Binding Activity (a) TME=50 mM Tris buffer containing 12.5 mM MgCl2, and 2 mM EDTA, pH 7.4 at 37° C., with concentrated HCl. (b) Wash buffer: 20 mM Tris base containing 2 mM MgCl2, pH 7.4 at room temperature. […] The compounds of the present invention have affinity for receptors of the endogenous pineal hormone, melatonin, as determined in receptor binding assays described above in Tables I to III for the ML1a and ML1b (human) receptors. […]
pIC50: −log10 of the molar value.

| SMILES | pIC50 |
| --- | --- |
| CCc1nc2cc(Br)cc(CCCNC(C)=O)c2o1 | 6.60 to 8.00 |
| CCc1nc2cc(-c3ccc(OC)cc3)cc(CCCNC(=O)C3CC3)c2o1 | < 6.60 |
| CCc1nc2ccc(-c3ccc(F)cc3)c(CCCNC(=O)c3ccccc3)c2o1 | 6.60 to 8.00 |
| CCc1nc2ccc(-c3ccco3)c(CCCNC(=O)c3ccccc3)c2o1 | < 6.60 |
| C=Cc1ccc2nc(CC)oc2c1CCCNC(=O)OC(C)(C)C | < 6.60 |
| CCc1nc2ccc(C)c(CCCNC(=O)C3CC3)c2o1 | > 8.00 |
| CCc1nc2ccc(-c3ccc(OC)cc3)c(CCCNC(=O)C3CC3)c2o1 | 6.60 to 8.00 |
| CCc1nc2ccc(-c3ccco3)c(CCCNC(=O)C3CC3)c2o1 | > 8.00 |
| C=Cc1ccc2nc(CC)oc2c1CCCNC(C)=O | > 8.00 |
